# assay summary: Human HepG2 cell viability assay in 384 well format
# Type: toxicity, cell-based
# Design: dose 125 nL, time 70.5 hour; concentration not given beside the values
# condition label: HepG2 cells, read-out: Inhibition
Attribute: cytotoxicity at 70.5 h
parameter: cytotoxicity at 70.5 h (%)

molecule="Cc1ccc(NC(=O)N2CC(C(=O)NC(C)C)C3(CCOCC3)C2)cc1 (centres undefined)" parameter="cytotoxicity at 70.5 h" measurement_units=% assay_result=-6.28
molecule=O=C(NCCc1ccc(Cl)s1)N1CCS(=O)(=O)CC1 parameter="cytotoxicity at 70.5 h" measurement_units=% assay_result=-3.08
molecule=CCN(CC)S(=O)(=O)c1ccc(CNc2cc(C)nc(C)n2)cc1 parameter="cytotoxicity at 70.5 h" measurement_units=% assay_result=-12.1
molecule=C[C@]1(O)CN(Cc2cscn2)CC[C@@H]1Oc1cccc(F)c1 parameter="cytotoxicity at 70.5 h" measurement_units=% assay_result=-3.07
molecule="COCc1cccc(NC(C)C(=O)N(C)Cc2cccc(F)c2)c1 (centres undefined)" parameter="cytotoxicity at 70.5 h" measurement_units=% assay_result=-2.97
molecule=Cn1ncc(CN2CCc3onc(-c4cccc(F)c4)c3C2)c1C1CC1 parameter="cytotoxicity at 70.5 h" measurement_units=% assay_result=-11.6
molecule="Cn1cc(C2(C)CN(Cc3ccc(O)c(Cl)c3)CCO2)cn1 (centres undefined)" parameter="cytotoxicity at 70.5 h" measurement_units=% assay_result=-6.24
molecule=CC(C)Cc1cc(C(=O)N2CCCN(c3ncccn3)CC2)[nH]n1 parameter="cytotoxicity at 70.5 h" measurement_units=% assay_result=-1.63
molecule=Cc1n[nH]c(C)c1NC(=O)CN1CCc2c(nc(C(C)C)n2C)C1 parameter="cytotoxicity at 70.5 h" measurement_units=% assay_result=-16.4
molecule=Cn1cccc1CN1CCC2(CC1)CN(c1ccccc1)C(=O)CO2 parameter="cytotoxicity at 70.5 h" measurement_units=% assay_result=2.21
molecule="CC(=O)c1cc(C(=O)N2CCC(CC(C)C)C2)c(=O)[nH]c1C (centres undefined)" parameter="cytotoxicity at 70.5 h" measurement_units=% assay_result=-12.6
molecule=COCCN1C(=O)CC[C@]12CC[C@@H](NCc1cccc(C)n1)CC2 parameter="cytotoxicity at 70.5 h" measurement_units=% assay_result=0.785
molecule=COc1ncc(-c2ccc(C(N)=O)cc2)c(OC)n1 parameter="cytotoxicity at 70.5 h" measurement_units=% assay_result=-8.59
molecule=CN(CCOc1ccc(Br)cc1)Cc1cscn1 parameter="cytotoxicity at 70.5 h" measurement_units=% assay_result=1.92
molecule=COc1ccc(NC(=O)c2nc(C)sc2C)cn1 parameter="cytotoxicity at 70.5 h" measurement_units=% assay_result=28
molecule=CCN(C)c1ncnc2c1CCN(S(=O)(=O)c1ccccc1)CC2 parameter="cytotoxicity at 70.5 h" measurement_units=% assay_result=-5.89
molecule=O=C(O)c1cc(S(=O)(=O)N2CCOc3ccccc32)ccc1F parameter="cytotoxicity at 70.5 h" measurement_units=% assay_result=0.682
molecule=CCc1ccc(C(=O)O)cc1S(=O)(=O)Nc1ccc(F)c(C#N)c1 parameter="cytotoxicity at 70.5 h" measurement_units=% assay_result=6.85
molecule=COc1ccc(C(=O)NCCCNc2ncccn2)cc1F parameter="cytotoxicity at 70.5 h" measurement_units=% assay_result=3.94
molecule=Cc1cccc(OC2CCN(c3nccnc3C#N)CC2)n1 parameter="cytotoxicity at 70.5 h" measurement_units=% assay_result=4.46
molecule=CC(C)c1nc2cc(NC(=O)Cn3ccccc3=O)ccc2o1 parameter="cytotoxicity at 70.5 h" measurement_units=% assay_result=-3.88
molecule=COCCN(Cc1ccoc1)S(=O)(=O)c1cccc(C(F)(F)F)c1 parameter="cytotoxicity at 70.5 h" measurement_units=% assay_result=-13.5
molecule=O=C(NCCNc1ncccn1)N1CCc2ccccc2C1 parameter="cytotoxicity at 70.5 h" measurement_units=% assay_result=8.69
molecule=O=C(O)C1(Oc2ccc3ccccc3c2)CCN(c2ncccn2)CC1 parameter="cytotoxicity at 70.5 h" measurement_units=% assay_result=-0.873

----------
# assay summary: Human HepG2 cell viability assay in 384 well format
# Assay type: toxicity, cell-based
# Design: dose 125 nL, time 70.5 hour; concentration not given beside the values
# condition label: HepG2 cells, read-out: Inhibition
cytotoxicity at 70.5 h by entry:
parameter: cytotoxicity at 70.5 h (%)

compound=Cn1cc(S(=O)(=O)NCc2ccsc2)cn1 parameter="cytotoxicity at 70.5 h" assay_result=13.8
compound="Cc1noc(C)c1CCC(=O)N1CCOCC1CC(=O)N1CCCC1 (configuration not stated)" parameter="cytotoxicity at 70.5 h" assay_result=1.48
compound=Cc1cc(C)nc(CN(C)c2nc(C3CCCC3)nc3c2cnn3C)c1 parameter="cytotoxicity at 70.5 h" assay_result=-9.74
compound="CCc1ccc(C2CCCN2C(=O)CNC(=O)CCC(C)C)o1 (configuration not stated)" parameter="cytotoxicity at 70.5 h" assay_result=-1.81
compound=CCOc1ccc(CNCCCn2ccnc2)cc1Cl parameter="cytotoxicity at 70.5 h" assay_result=0.65
compound="COC(=O)N1CCc2ccccc2C1C(=O)NCC(F)(F)F (configuration not stated)" parameter="cytotoxicity at 70.5 h" assay_result=-5.95
compound=CS(=O)(=O)N1C[C@H]2C[C@H](C(=O)N3CCOCC3)[C@@H](C1)O2 parameter="cytotoxicity at 70.5 h" assay_result=-6.47
compound=Cc1cccc(CN2CCn3cc(Cn4cccn4)nc3C2)n1 parameter="cytotoxicity at 70.5 h" assay_result=-12.9
compound=CCCc1nc(C)c(C(=O)NC2CCN(c3ncccn3)CC2)s1 parameter="cytotoxicity at 70.5 h" assay_result=-9.16
compound=CCc1ccc2nc(-c3cnn(C)c3)cc(C(=O)N3CCOCC3)c2c1 parameter="cytotoxicity at 70.5 h" assay_result=-7.51
compound="CC1CN(Cc2noc(C3CC3)n2)CCN1Cc1noc(C2CC2)n1 (configuration not stated)" parameter="cytotoxicity at 70.5 h" assay_result=-13.7
compound="CCc1cnc(CN2CCCC2c2noc(C3CC3)n2)o1 (configuration not stated)" parameter="cytotoxicity at 70.5 h" assay_result=-11.3

----------
# assay summary: Human HepG2 cell viability assay in 384 well format
# Assay type: toxicity, cell-based
# Set-up: dose 125 nL, time 70.5 hour; concentration not given beside the values
# condition label: HepG2 cells, read-out: Inhibition
parameter: cytotoxicity at 70.5 h (%)

compound="COc1ccc(CCN2CCCC(Cn3nc(C)nc3C)C2)cc1 (stereo unspecified)" parameter="cytotoxicity at 70.5 h" assay_result=-2.31
compound=CC(=O)c1cccc(-c2c[nH]c(C)n2)c1 parameter="cytotoxicity at 70.5 h" assay_result=-7.11
compound="Cc1noc(C)c1CN1CCCC(CN(C(=O)OC(C)(C)C)C(C)C)C1 (stereo unspecified)" parameter="cytotoxicity at 70.5 h" assay_result=-3.37
compound="Cn1c(=O)[nH]c(=O)c2c1nc1n2CC(c2ccc(Br)cc2)O1 (stereo unspecified)" parameter="cytotoxicity at 70.5 h" assay_result=-3.88
compound=C/C=C(\C)CN1CCC2(CCC(=O)N2OCc2ccccc2F)CC1 parameter="cytotoxicity at 70.5 h" assay_result=-7.98
compound=COc1ccccc1[C@@H]1CN(Cc2ccc3nsnc3c2)C[C@H]1C(=O)O parameter="cytotoxicity at 70.5 h" assay_result=-5.24
compound=Cc1ccnc(N2C[C@@H]3CC[C@H](C2)N(CC2CCC2)C3=O)n1 parameter="cytotoxicity at 70.5 h" assay_result=9.42
compound=Cc1csc2ncc(-c3ccnc(NC4CCOCC4)n3)c(=O)n12 parameter="cytotoxicity at 70.5 h" assay_result=0.723
compound=CC(C)Cc1noc(CN2CCN(C(=O)c3ccco3)CC2)n1 parameter="cytotoxicity at 70.5 h" assay_result=-9.38
compound=Fc1cccc(Cl)c1CN1CCn2c(nnc2C2CC2)C1 parameter="cytotoxicity at 70.5 h" assay_result=-10.3
compound=COCCNc1nc2c(c(NCc3cnc(C)cn3)n1)CCNCC2 parameter="cytotoxicity at 70.5 h" assay_result=-4.71

----------
# assay summary: Human HepG2 cell viability assay in 384 well format
# Assay type: toxicity, cell-based
# Set-up: dose 125 nL, time 70.5 hour; concentration not given beside the values
# condition label: HepG2 cells, read-out: Inhibition
Examples of molecules with documented cytotoxicity at 70.5 h follow.
parameter: cytotoxicity at 70.5 h (%)

molecule="CCOCC1CN(Cc2ccc(F)cc2)Cc2nn(C)cc21 (centres undefined)" parameter="cytotoxicity at 70.5 h" assay_result=-11.9
molecule=O=C(CC1CC1)N[C@@H]1CN(C(=O)c2ccsc2)C[C@@H]2CCCO[C@@H]21 parameter="cytotoxicity at 70.5 h" assay_result=-1.55
molecule="CCOCc1cnc2n1CCN(C(=O)c1ccoc1C)C2C (centres undefined)" parameter="cytotoxicity at 70.5 h" assay_result=9.87
molecule=CC(=O)N1CCCC2(CCN(C(=O)c3nn(C)c4ccccc34)CC2)C1 parameter="cytotoxicity at 70.5 h" assay_result=29.2
molecule=O=C(NCCCN1CCOCC1)c1cc(-c2ccc3c(c2)CCO3)n[nH]1 parameter="cytotoxicity at 70.5 h" assay_result=-0.337
molecule=CN(C)Cc1nnc2n1CCCN(C(=O)c1c[nH]cn1)C2 parameter="cytotoxicity at 70.5 h" assay_result=-0.569
molecule="Cc1ccc(C(NCC(=O)N2CCNC(=O)C2)c2ccccc2)cc1 (centres undefined)" parameter="cytotoxicity at 70.5 h" assay_result=-104
molecule=CCc1nsc(N2CCC3(CC2)OCCO3)n1 parameter="cytotoxicity at 70.5 h" assay_result=-8.49
molecule="O=C(C1CCOCC1)N1CCCC1c1cncc(CN2CCCC2)n1 (centres undefined)" parameter="cytotoxicity at 70.5 h" assay_result=-0.0308
molecule="O=C(NCc1ccco1)C1CCCN1Cc1nc(-c2ccco2)no1 (centres undefined)" parameter="cytotoxicity at 70.5 h" assay_result=-15.9
molecule="CCN(CC)C(=O)CN1CCCC1C(=O)N(C)C (centres undefined)" parameter="cytotoxicity at 70.5 h" assay_result=-11.8
molecule=CCc1[nH]c2c(CNC(=O)[C@@H]3CCCN3C)cc(C)cc2c1C parameter="cytotoxicity at 70.5 h" assay_result=6.71
molecule=COC(=O)CN1CCCn2nc(CCC(=O)N3CCCC3)cc2C1 parameter="cytotoxicity at 70.5 h" assay_result=2.63
molecule="CCc1nccn1C1CCCN(C(=O)c2ccn(-c3ccccc3)n2)C1 (centres undefined)" parameter="cytotoxicity at 70.5 h" assay_result=-1.19
molecule="CC(C)(C)c1nnc2n1C(C(=O)N1CCCC1)CC2 (centres undefined)" parameter="cytotoxicity at 70.5 h" assay_result=-12.7
molecule=COCCC(=O)N(CCC#N)c1ccc(C)c(C)c1 parameter="cytotoxicity at 70.5 h" assay_result=-3.89
molecule="O=C(Nc1cccc(C2SCCS2)c1)C1CCCN1c1nccs1 (centres undefined)" parameter="cytotoxicity at 70.5 h" assay_result=0.117
molecule="Cc1csc(C(Cc2ccsc2)NC(=O)CN(C)Cc2cccnc2)n1 (centres undefined)" parameter="cytotoxicity at 70.5 h" assay_result=-0.677
molecule=COCC(=O)N1CCN(c2ncnc3cccc(F)c23)CC1 parameter="cytotoxicity at 70.5 h" assay_result=0.217
molecule=CN(C)C(=O)[C@H]1CCS(=O)(=O)[C@@H]2CN(c3ncc(F)cn3)C[C@H]12 parameter="cytotoxicity at 70.5 h" assay_result=23.5
molecule="O=C(COc1ccc2c(c1)CCC2)N1CCCC(n2cccn2)C1 (centres undefined)" parameter="cytotoxicity at 70.5 h" assay_result=15.3
molecule="COc1ccc(CN2Cc3cn(C)nc3C(COCC3CC3)C2)cc1 (centres undefined)" parameter="cytotoxicity at 70.5 h" assay_result=-4.4
molecule="COc1ccc(CNC(=O)N2CCN(CC(O)C3CC3)CC2)cc1 (centres undefined)" parameter="cytotoxicity at 70.5 h" assay_result=-3
molecule=CN1CSC[C@H]1C(=O)N1CCC(CCc2ccccc2)CC1 parameter="cytotoxicity at 70.5 h" assay_result=-5.84
